The reader will find reported body weight values listed item by item below.
Assay: Body and organ weights of cynomolgus monkeys (Example 46)
Type: in vivo
Settings: day 8
Experimental: Groups, each consisting of two male and two female monkeys, were injected subcutaneously with 25 mg/kg of ISIS 416850, ISIS 449709, ISIS 445522, ISIS 449710, ISIS 449707, ISIS 449711, ISIS 449708, 416858, and ISIS 445531. […] Body weights were taken 14 days and 7 days before the start of treatment and were then measured weekly throughout the treatment period. […]
Strand notation (5' to 3'): a small letter for the sugar, then the base; units joined by * are phosphorothioate-linked, units joined directly phosphodiester-linked; [ ] holds rarer units or linkages, { } end groups; capitals alone tell only the bases. e = 2'-O-(2-methoxyethyl) (MOE); [5mC] = 5-methylcytosine; d = 2'-deoxy (DNA)

{"columns": ["substance", "unit.symbol", "body weight"],
 "data": [
  ["ISIS 449710: 3-8-3, 4-8-4, 2-10-2, 3-10-3 or 4-10-4 MOE microwalk gapmer (Table 46) (antisense e[5mC]*eA*e[5mC]*dA*dG*dT*dT*dT*d[5mC]*dT*dG*dG*d[5mC]*eA*eG*eG)", "g", 2120],
  ["ISIS 449711: 3-8-3, 4-8-4, 2-10-2, 3-10-3 or 4-10-4 MOE microwalk gapmer (Table 46) (antisense eA*e[5mC]*dA*dG*dT*dT*dT*d[5mC]*dT*dG*dG*d[5mC]*eA*eG)", "g", 2123],
  ["ISIS 445522: 5-8-5 or 6-8-6 MOE microwalk gapmer (Table 44) (antisense eG*e[5mC]*eA*e[5mC]*eA*dG*dT*dT*dT*d[5mC]*dT*dG*dG*e[5mC]*eA*eG*eG*e[5mC])", "g", 2094],
  ["ISIS 416858: MOE gapmer, nucleobases 1275 to 1318 of SEQ ID NO: 1 (Table 8) (antisense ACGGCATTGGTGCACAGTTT; MOE gapmer, wing and gap sizes not given here)", "g", 2149],
  ["ISIS 449708: 3-8-3, 4-8-4, 2-10-2, 3-10-3 or 4-10-4 MOE microwalk gapmer (Table 46) (antisense eA*e[5mC]*eA*dG*dT*dT*dT*d[5mC]*dT*dG*dG*e[5mC]*eA*eG)", "g", 2148],
  ["ISIS 449709: 3-8-3, 4-8-4, 2-10-2, 3-10-3 or 4-10-4 MOE microwalk gapmer (Table 46) (antisense eG*e[5mC]*eA*e[5mC]*dA*dG*dT*dT*dT*d[5mC]*dT*dG*dG*d[5mC]*eA*eG*eG*e[5mC])", "g", 2075],
  ["ISIS 449707: 3-8-3, 4-8-4, 2-10-2, 3-10-3 or 4-10-4 MOE microwalk gapmer (Table 46) (antisense e[5mC]*eA*e[5mC]*eA*dG*dT*dT*dT*d[5mC]*dT*dG*dG*e[5mC]*eA*eG*eG)", "g", 2088],
  ["ISIS 416850: MOE gapmer, nucleobases 1275 to 1318 of SEQ ID NO: 1 (Table 8) (antisense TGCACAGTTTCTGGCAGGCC; MOE gapmer, wing and gap sizes not given here)", "g", 2072],
  ["ISIS 445531: 5-8-5 or 6-8-6 MOE microwalk gapmer (Table 44) (antisense eG*eG*e[5mC]*eA*eT*dT*dG*dG*dT*dG*d[5mC]*dA*d[5mC]*eA*eG*eT*eT*eT)", "g", 2119]
]}
